Source of measurements: ChEMBL document CHEMBL6071187

System: Pfeiffer
Assay: Cytotoxicity against human Pfeiffer cells assessed as reduction in cell viability incubated for 72 hrs by MTS assay
Type: functional, cell-based
Property: pIC50
Kindly note that pIC50 refers to -log10 of the concentration in mol/L and answer with the value alone.

Solved entries (count: 2):
{"columns": ["Molecule", "Target Desc", "pIC50"],
 "data": [
  ["C[C@@H]1C[C@H](C)CN(S(=O)(=O)c2ccc3c(c2)C(=NO)c2cc(S(=O)(=O)N4C[C@H](C)C[C@H](C)C4)ccc2C3=NO)C1", "Pfeiffer", 6.76],
  ["CC1CC(C)CN(S(=O)(=O)c2ccc3c(c2)/C(=N/O)c2cc(S(=O)(=O)N4CCN(C(=O)CCCCNc5cccc6c5C(=O)N(C5CCC(=O)NC5=O)C6=O)CC4)ccc2/C3=N\\O)C1 (stereo not given)", "Pfeiffer", 6.19]
]}

Respond only with pIC50 recorded for CC1CC(C)CN(S(=O)(=O)c2ccc3c(c2)C(=NO)c2cc(S(=O)(=O)N4CC(C)CC(C)C4)ccc2C3=NOCCCNC(=O)CCOCCOCCNc2cccc3c2C(=O)N(C2CCC(=O)NC2=O)C3=O)C1 (stereo not given)
5.73
